Molecular target: T1, peanut (Arachis hypogaea) allergen Ara h 6 (Arachis hypogaea) (UniProt Q647G9)
T1 sequence: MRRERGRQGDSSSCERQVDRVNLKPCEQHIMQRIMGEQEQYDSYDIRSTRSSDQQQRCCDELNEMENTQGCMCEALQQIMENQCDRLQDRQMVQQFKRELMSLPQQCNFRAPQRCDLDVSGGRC
Experiment: EC50 of IgE mAb on allergen, Table 1; method not stated
EC50 values for the binders below.
Return type: number; implicit unit ng/mL.

Example entries and their recorded answers appear below.
[[record]]
binder = "human IgE mAb 21C10 (antibody, from a related filing, V domains shown) VH: EVQLVESGGGLVKPGGSLRLSCAASGFILSRSSMSWVRQAPGKGLEWVSYISSTSSHIYYADSLKGRFTISRDNTENSVYLQMSSLRAEDTGVYYCARKTNGAWFLDLWGRGTLVTVSS VL: QSVLTQPPSVSGAPGQRVTISCTGSSSNIGAGSDVHWYQQFPGSAPHVLIYGNNQRPSGVPDRFSASKSGTSASLAITGLQADDEADYYCQSYDYDLSGSWVFGGGTKLTVL"
readout_number = 3.2

[[record]]
binder = "human IgE mAb 8F3 (antibody, from a related filing, V domains shown) VH: QLQLQESGPGLVKPSETLSLTCTVSDASIDTPSYFWSWIRQPPGKGLEWIGSIYYTGNKYSNPSLKSRVTMSVDTPKRQFSLRLSSVTAADTAVYYCARYVDYVWLRAFDIWGQGTRVTVSS VL: EIVLTQSPATLSLSPGERATLSCRASPSAGRFLAWYQQRPGQAPRLLIYDASKRATDTPARFSGSGSGTDFNLTIASLEPEDFAVYYCQHRSNWPLTFGGGTKVEIK"
readout_number = 3.8

[[record]]
binder = "human IgE mAb 1A8 (antibody, from a related filing, V domains shown) VH: QLQLQESGPGLVKPSETLSLTCSVSDDSISTPSYFWTWIRQPPGKGLEWIASIYYTGTTYYNPSLKSRVTLSVDTPKRQFFLRLSSVTAADTAVYYCARYLDYVWLRAFDVWGQGAMVTVSS VL: EIVLTQSPATLSLSPGERATLSCRASPSVGRFLAWYQQKPGQAPRLLIYDASQRATDIPARFSASGSGTDFTLTIDSLEPEDFAIYYCQHRSNWPVTFGGGTRVEIK"
readout_number = 5

[[record]]
binder = "human IgE mAb 20M10 (antibody, from a related filing, V domains shown) VH: EVQLVESGGGLVKPGGSLRLSCTVSGFTFNMHSMNWVRQAPGKGLEWVSFISSTSTYIYYPDSVKGRFTVSRDNSKNSLYLQMTSLRAEDTAVYYCVRRGRGGAARALDNWGQGTLVTVSS VL: SYVLPQTPSLSVAPGQTATISCGGNNTGSKSVHWYQQKPGQAPLLVVYDNSDRPSGIPERFSGSNSGNTATLTLSRVEAEDEADYYCQVWDSTIDHVIFGGGTKLTVL"
readout_number = 5.3

[[record]]
binder = "human IgE mAb 26A5 (antibody, from a related filing, V domains shown) VH: QVQLVQSGSELRKPGASVKVSCKASGYTFTKYGMNWVRQAPGQGLEWMGWINTNTAKPTYAQDFTGRFVFSLDTSVNTAYLEISGLKAEDTAVYYCATDGSEGSWGQGTLVTVSS VL: DIQMTQSPSTLSASVGDRVTITCRASQSIGTWLAWHQQKPGTAPKVLIYKASNLKSGVPSRFSGSGSGTDFTLTISSLQPDDVATYYCQQYNTYSGTFGQGTRVEIK"
readout_number = 10.1


Next up:
In plain terms, human IgE mAb 15C2 (antibody, from a related filing, V domains shown) VH: QVQLVQSESELKKPGASVKISCKASGYDLTKYAMNWVRQAPGQGLEWMGWINTNTAKPTYAQGFTGRFVFSLDTSVRTIYLEISNLKAEDTAIYYCSRDGSGASWGQGTLVTVSS VL: DIQMTQSPSTLSASVGDRVTITCRASQNIGRWLAWHQQKPGKAPKVLITKASNLESGVPSRFTGSGSGTDFTLTITSLQPDDFATYYCQQYTTYSGTFGQGTRVEIK has a documented EC50 of 31.5
